Hey, just so you know, these numbers are from paper PMC8443706.

- Measurement Target: T1, IIB-Fc:ALK3-Fc heterodimer (human ActRIIB ECD-Fc paired with human ALK3 ECD-Fc) (human, UniProt Q13705-1 19-134; P36894 24-152)
- T1 construct: activin receptor type IIB (ActRIIB) extracellular domain, human, aa 19-134 of NP_001097.2; copies: 1 + 1
- T1 sequence (Q13705 19-134, chain 1 of 2): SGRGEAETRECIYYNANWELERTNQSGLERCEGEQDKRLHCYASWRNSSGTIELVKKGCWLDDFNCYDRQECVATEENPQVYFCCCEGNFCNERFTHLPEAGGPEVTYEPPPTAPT
- T1 sequence (P36894 24-152, chain 2 of 2): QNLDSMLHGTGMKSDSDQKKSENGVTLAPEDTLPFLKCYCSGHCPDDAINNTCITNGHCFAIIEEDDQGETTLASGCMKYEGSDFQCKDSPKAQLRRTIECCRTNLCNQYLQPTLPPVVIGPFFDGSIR
- Measurement Notes: SPR; Biacore 8K, 37 °C; Fc-fusion receptor dimers captured by anti-human Fc antibody on a CM5 chip (100-150 RU); ligands injected in two-fold dilution series (300 s association, 600 s dissociation); HBS-EP+ supplemented with 350 mM NaCl and 0.5 mg/mL BSA; 1:1 Langmuir model with a term for mass transport
- Recorded Conditions: both partners purified
Param label: returns class 1 when koff < 0.0003 s⁻¹, returns class 0 otherwise, including exact equality.

Completed entries (count: 4):
Binder: GDF11 (ligand, human, UniProt O95390 299-407, looked up, source: generated in house) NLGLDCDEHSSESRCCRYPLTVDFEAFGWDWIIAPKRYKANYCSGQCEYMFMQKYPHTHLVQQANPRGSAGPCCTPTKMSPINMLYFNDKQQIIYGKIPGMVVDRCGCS
Category: class 0
//
Binder: activin B (ligand, human, UniProt P09529 293-407, looked up, source: generated in house) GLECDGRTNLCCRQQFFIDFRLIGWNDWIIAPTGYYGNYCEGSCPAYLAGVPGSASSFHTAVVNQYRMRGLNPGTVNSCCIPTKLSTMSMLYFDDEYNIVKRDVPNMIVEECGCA
Category: class 0
//
Binder: BMP6 (ligand, human, UniProt P22004 375-513, looked up, source: bought: R&D Systems) SASSRRRQQSRNRSTQSQDVARVSSASDYNSSELKTACRKHELYVSFQDLGWQDWIIAPKGYAANYCDGECSFPLNAHMNATNHAIVQTLVHLMNPEYVPKPCCAPTKLNAISVLYFDDNSNVILKKYRNMVVRACGCH
Category: class 1
//
Binder: BMP7 (ligand, human, UniProt P18075 293-431, looked up, source: bought: R&D Systems) STGSKQRSQNRSKTPKNQEALRMANVAENSSSDQRQACKKHELYVSFRDLGWQDWIIAPEGYAAYYCEGECAFPLNSYMNATNHAIVQTLVHFINPETVPKPCCAPTQLNAISVLYFDDSSNVILKKYRNMVVRACGCH
Category: class 0

Input BMP10 (ligand, human, UniProt O95393 317-424, looked up, source: bought: R&D Systems) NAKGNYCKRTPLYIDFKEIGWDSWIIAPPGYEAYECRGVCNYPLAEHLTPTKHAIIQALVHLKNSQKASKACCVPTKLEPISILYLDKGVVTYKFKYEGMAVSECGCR ; condition: koff strictly below 0.0003 s⁻¹. Does it hold?
class 0
